test system: L1210 leukemia ip in BDF1 mice, survival T/C; test: NCI In Vivo Anticancer Drug Screen. Data for tumor model L1210 Leukemia (intraperitoneal) in B6D2F1 (BDF1) mice; conditions: endpoint: mean survival time; dose: 50.0 mg/kg/injection; schedule: Q01DX001 (ip); vehicle: carboxymethylcellulose (CMC); higher = longer survival
Inconclusive results and toxic doses are left out.
As shown below, each of these molecules has a reported T/C value.
MEASUREMENT_LABEL: T/C

>  <MOLECULE>
COc1c2c(c3c(c1OC)c(=O)c1ccccc1n3C)OCO2

>  <RESULT>
96 % of control

$$$$
>  <MOLECULE>
NC(=O)Nc1ccc2c(c1)Cc1ccccc1-2

>  <RESULT>
100 % of control

$$$$
>  <MOLECULE>
N#CC(Nc1c(N)nc(N)nc1N)c1ccc(N(CCCl)CCCl)cc1 (centres undefined)

>  <RESULT>
105 % of control

$$$$
>  <MOLECULE>
O=C1C(=O)c2cc(Br)cc([N+](=O)[O-])c2-c2ccc(Br)cc21

>  <RESULT>
95 % of control

$$$$
>  <MOLECULE>
Cc1ccc(NC(=O)NCCCO)cc1

>  <RESULT>
101 % of control

$$$$
>  <MOLECULE>
N#Cc1c2ccccc2nc2ccccc12

>  <RESULT>
90 % of control

$$$$
>  <MOLECULE>
COc1c2ccoc2nc2ccc3c(c12)C=CC(C)(C)O3

>  <RESULT>
98 % of control

$$$$
>  <MOLECULE>
C1CC2(C34CCC(CC3)C4)CCC1C2

>  <RESULT>
105 % of control

$$$$
>  <MOLECULE>
CCCc1cc(=O)c2ccccc2n1COC(C)=O

>  <RESULT>
119 % of control

$$$$
>  <MOLECULE>
CCOC(=O)CC(C(=O)O)=C(c1ccccc1)c1ccccc1

>  <RESULT>
98 % of control

$$$$
>  <MOLECULE>
O=C1OCC(C(=O)c2ccccc2)C1=Nc1ccccc1O (centres undefined)

>  <RESULT>
94 % of control

$$$$
>  <MOLECULE>
O=C1CCC(=O)N1Nc1ccccc1

>  <RESULT>
104 % of control

$$$$
>  <MOLECULE>
COc1ccc(C(=O)OCCN(CCOC(=O)c2ccc(OC)cc2)c2c[nH]c(=O)[nH]c2=O)cc1

>  <RESULT>
106 % of control

$$$$
>  <MOLECULE>
O=C(O)/C(F)=C/c1ccccc1

>  <RESULT>
111 % of control

$$$$

---

system: L1210 leukemia ip in BDF1 mice, survival T/C; experiment: NCI In Vivo Anticancer Drug Screen. Data for tumor model L1210 Leukemia (intraperitoneal) in B6D2F1 (BDF1) mice; conditions: endpoint: mean survival time; dose: 150.0 mg/kg/injection; schedule: Q04DX003 (ip); vehicle: saline; higher = longer survival
Inconclusive results and toxic doses are left out.
Below, each of the compounds is paired with its reported T/C value.

>  <COMPOUND>
O=C(Nc1ccccc1C(=O)OCc1ccc([N+](=O)[O-])cc1)OCc1ccccc1

>  <T/C>
98 % of control

$$$$
>  <COMPOUND>
O=P(c1ccccc1)(N1CCOCC1)N1CCOCC1

>  <T/C>
104 % of control

$$$$
>  <COMPOUND>
CCCCCCCC/C=C\CCCCCCCC(=O)NCCCOCCOCC

>  <T/C>
96 % of control

$$$$
>  <COMPOUND>
CC(=O)Oc1ccc[nH]c1=O

>  <T/C>
100 % of control

$$$$
>  <COMPOUND>
O=C(Nc1ccc(S(=O)(=O)Nc2ccc(N=Nc3ccccc3)cc2)cc1)C(SC1=NC=NC2=NC=NC21)SC1=NC=NC2=NC=NC21 (stereo not given)

>  <T/C>
96 % of control

$$$$
